B1: TPR 5TU (parent)
chain: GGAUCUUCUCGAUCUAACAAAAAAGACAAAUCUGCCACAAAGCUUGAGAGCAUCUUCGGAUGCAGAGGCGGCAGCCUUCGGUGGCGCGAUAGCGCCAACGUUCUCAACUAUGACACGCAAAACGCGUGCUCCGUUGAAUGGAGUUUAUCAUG

Variants of: B1
EXPERIMENT: polymerase ribozyme fitness, log enrichment relative to wild type (log ratio); higher = more active; in vitro selection for triplet polymerase activity
Fewer inactive variants are shown than the library holds.
READOUT NAME: polymerase ribozyme fitness (log ratio)

INSERT INTO assay_data (alteration, censor_symbol, readout_value) VALUES
  ('C14A A17U A40U C57G G84U C96A A121C', '≤', -4.2),
  ('A28U A30U A39U G50C C57G C75G U82A G83C G124U', '≤', -4.2),
  ('A17C A47C C95U C116U', '=', -0.195),
  ('A19U A22C A40C C43G A66C C95A G141U G152A', '=', -3.6);
